Entry source: ChEMBL document CHEMBL1126593

Recorded pKi by entry
# measured_on: Amine oxidase [flavin-containing] B (Bos taurus, UniProt P56560)
# Sequence (P56560 whole entry): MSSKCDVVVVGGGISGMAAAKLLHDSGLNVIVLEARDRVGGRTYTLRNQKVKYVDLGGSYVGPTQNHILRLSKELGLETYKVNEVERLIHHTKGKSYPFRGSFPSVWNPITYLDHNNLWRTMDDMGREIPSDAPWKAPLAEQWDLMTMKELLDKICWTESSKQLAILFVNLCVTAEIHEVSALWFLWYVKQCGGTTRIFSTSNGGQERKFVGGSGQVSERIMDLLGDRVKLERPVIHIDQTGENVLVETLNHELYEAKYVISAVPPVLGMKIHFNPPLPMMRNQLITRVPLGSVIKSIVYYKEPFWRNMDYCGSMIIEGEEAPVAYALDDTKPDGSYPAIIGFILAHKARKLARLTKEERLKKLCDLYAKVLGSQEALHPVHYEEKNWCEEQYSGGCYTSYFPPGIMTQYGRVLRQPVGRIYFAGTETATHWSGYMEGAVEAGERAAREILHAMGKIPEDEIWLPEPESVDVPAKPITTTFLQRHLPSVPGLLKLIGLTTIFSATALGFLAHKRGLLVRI
# protocol: Kinetic constant (KI) was calculated by inhibition of monoamino oxidase B (MAO B)
Units for pKi: none; it is -log10 of a concentration expressed in mol/L.

// pKi lookup, key: CCCCCNCCC#N
2.24

Find the recorded pKi belonging to CCCCCNCC(N)=O [MILACEMIDE] and report it.
3.03

Given the molecule CCCCCNCC(=O)OCC , what is its reported pKi?
1.85

Reported pKi for CCCCCNCC#N : what is it?
1.85

* * *

Parameter Ki: see the listing below.
# measured_on: Amine oxidase [flavin-containing] B (Bos taurus)
# protocol: Kinetic constant was calculated by inhibition of monoamino oxidase B (MAO B)

- compound: "CCCCCNCC(=O)OCC"
  Ki: "2 mM"
- compound: "CCCCCNCCC#N"
  Ki: "4.94 mM"
- compound: "CCCCCNCC#N"
  Ki: "4.94 mM"

Let us move to another entry and its Ki.
I have this compound here, CCCCCNCC(N)=O [MILACEMIDE] , and I need its recorded Ki.
1.08 mM
